Test system: P-gp
TEST SUMMARY: Permeation experiments on Caco-2 cell monolayer (two-way transport)
Assay type: in vitro ADME, human
REPORTED CONDITIONS: human, Caco-2, with verapamil 10 µM; 5 + 10 µM Ver (P-GP inhibitor); read-out: ER (P BL-AP)/(P AP-BL)
For each entry below, report its efflux ratio at 120 min, 5 µM value.
# answer = number (no unit)

Observed efflux ratio at 120 min, 5 µM on P-gp, entry O=C(O)[C@H]1O[C@@H](Oc2cc3oc(-c4ccccc4)cc(=O)c3c(O)c2O)[C@H](O)[C@@H](O)[C@@H]1O [BG, baicalein‐7‐O‐β‐D‐glucuronide] , equals 1.65

The recorded efflux ratio at 120 min, 5 µM with P-gp for O=C(O)[C@H]1O[C@@H](Oc2c(O)cc3oc(-c4ccccc4)cc(=O)c3c2O)[C@H](O)[C@@H](O)[C@@H]1O [B6G, baicalein‐6‐O‐β‐D‐glucuronide] was 0.98

----------
Tested on: P-gp
TEST SUMMARY: Permeation experiments on Caco-2 cell monolayer (two-way transport)
Assay type: in vitro ADME, human
REPORTED CONDITIONS: human, Caco-2, with verapamil 10 µM; 5 + 10 µM Ver (P-GP inhibitor); read-out: P app Absorptive (AP-BL)
ENDPOINT: Papp A→B at 120 min, 5 µM
The answer should read as a number with its unit following.

According to the records, this compound O=C(O)[C@H]1O[C@@H](Oc2cc3oc(-c4ccccc4)cc(=O)c3c(O)c2O)[C@H](O)[C@@H](O)[C@@H]1O [BG, baicalein‐7‐O‐β‐D‐glucuronide] displays Papp A→B at 120 min, 5 µM of 6.37 ×10⁻⁶ cm/s

----------
TEST SUMMARY: Permeation experiments on Caco-2 cell monolayer (two-way transport)
Format: in vitro ADME, human
REPORTED CONDITIONS: human, Caco-2, BL-AP; baicalein 15 μM; read-out: corrected apparent permeability (Pcorrected)
ENDPOINT: Papp at 120 min, 15 μM (×10⁻⁶ cm/s)
Respond with the bare value in ×10⁻⁶ cm/s.

// recorded Papp at 120 min, 15 μM for O=c1cc(-c2ccccc2)oc2cc(O)c(O)c(O)c12 : 105

----------
Tested on: MRP2
TEST SUMMARY: Permeation experiments on Caco-2 cell monolayer (two-way transport)
Assay type: in vitro ADME, human
REPORTED CONDITIONS: human, Caco-2, with MK-571 10 µM; 5 + 10 µM MK571 (MRP inhibitor); read-out: P app Absorptive (AP-BL)
ENDPOINT: Papp A→B at 120 min, 5 µM (×10⁻⁶ cm/s)
Just the number please, in ×10⁻⁶ cm/s, no unit attached.

Papp A→B at 120 min, 5 µM measured on O=C(O)[C@H]1O[C@@H](Oc2cc3oc(-c4ccccc4)cc(=O)c3c(O)c2O)[C@H](O)[C@@H](O)[C@@H]1O [BG, baicalein‐7‐O‐β‐D‐glucuronide] = 13.2

Recorded result, O=C(O)[C@H]1O[C@@H](Oc2c(O)cc3oc(-c4ccccc4)cc(=O)c3c2O)[C@H](O)[C@@H](O)[C@@H]1O [B6G, baicalein‐6‐O‐β‐D‐glucuronide] , Papp A→B at 120 min, 5 µM: 6.91

----------
TEST SUMMARY: Permeation experiments on Caco-2 cell monolayer (two-way transport)
Type: in vitro ADME, human
REPORTED CONDITIONS: human, Caco-2, BL-AP; baicalein 10 μM; read-out: corrected apparent permeability (Pcorrected)
ENDPOINT: Papp at 120 min, 10 μM (×10⁻⁶ cm/s)
Report the figure in ×10⁻⁶ cm/s without appending any unit label.

The molecule listed as O=c1cc(-c2ccccc2)oc2cc(O)c(O)c(O)c12 [B, baicalein] shows Papp at 120 min, 10 μM equal to 163

----------
System: MRP2
TEST SUMMARY: Permeation experiments on Caco-2 cell monolayer (two-way transport)
Type: in vitro ADME, human
REPORTED CONDITIONS: human, Caco-2, with MK-571 10 µM; 5 + 10 µM MK571 (MRP inhibitor); read-out: P app Secretory (BL-AP)
ENDPOINT: Papp B→A at 120 min, 5 µM

Sure, the documented Papp B→A at 120 min, 5 µM for O=C(O)[C@H]1O[C@@H](Oc2cc3oc(-c4ccccc4)cc(=O)c3c(O)c2O)[C@H](O)[C@@H](O)[C@@H]1O [BG, baicalein‐7‐O‐β‐D‐glucuronide] is 11.4 ×10⁻⁶ cm/s

Per the records, this molecule ( O=C(O)[C@H]1O[C@@H](Oc2c(O)cc3oc(-c4ccccc4)cc(=O)c3c2O)[C@H](O)[C@@H](O)[C@@H]1O [B6G, baicalein‐6‐O‐β‐D‐glucuronide] ) has Papp B→A at 120 min, 5 µM equal to 4.56 ×10⁻⁶ cm/s

----------
Task for the reader: assign each of the following molecules its reported efflux ratio at 120 min, 5 µM.
TEST SUMMARY: Permeation experiments on Caco-2 cell monolayer (two-way transport)
Type: in vitro ADME, human
REPORTED CONDITIONS: human, Caco-2; 5 µM; read-out: ER (P BL-AP)/(P AP-BL)

The recorded efflux ratio at 120 min, 5 µM for O=C(O)[C@H]1O[C@@H](Oc2c(O)cc3oc(-c4ccccc4)cc(=O)c3c2O)[C@H](O)[C@@H](O)[C@@H]1O [B6G, baicalein‐6‐O‐β‐D‐glucuronide] is 1.1

Memo: O=C(O)[C@H]1O[C@@H](Oc2cc3oc(-c4ccccc4)cc(=O)c3c(O)c2O)[C@H](O)[C@@H](O)[C@@H]1O [BG, baicalein‐7‐O‐β‐D‐glucuronide] , reported efflux ratio at 120 min, 5 µM: 1.57

----------
TEST SUMMARY: Permeation experiments on Caco-2 cell monolayer (two-way transport)
Format: in vitro ADME, human
REPORTED CONDITIONS: human, Caco-2, BL-AP; 10 μM B; 0.5% PEG400 group; read-out: corrected apparent permeability (Pcorrected)
ENDPOINT: Papp at 120 min, 10 μM (×10⁻⁶ cm/s)
The response must be a number in ×10⁻⁶ cm/s with no trailing unit.

The reported value for O=c1cc(-c2ccccc2)oc2cc(O)c(O)c(O)c12 in terms of Papp at 120 min, 10 μM is 159

----------
TEST SUMMARY: Permeation experiments on Caco-2 cell monolayer (two-way transport)
Format: in vitro ADME, human
REPORTED CONDITIONS: human, Caco-2, AP-BL; baicalein 10 μM; read-out: corrected apparent permeability (Pcorrected)
ENDPOINT: Papp at 120 min, 10 μM (×10⁻⁶ cm/s)
Field format: number, assumed ×10⁻⁶ cm/s, no unit text.

Lookup result for O=c1cc(-c2ccccc2)oc2cc(O)c(O)c(O)c12 ; measured Papp at 120 min, 10 μM: 78.4

----------
TEST SUMMARY: Permeation experiments on Caco-2 cell monolayer (two-way transport)
Format: in vitro ADME, human
REPORTED CONDITIONS: human, Caco-2, BL-AP; 10 μM B; 1% PEG400 group; read-out: corrected apparent permeability (Pcorrected)
ENDPOINT: Papp at 120 min, 10 μM (×10⁻⁶ cm/s)
Report only the number, with the unit ×10⁻⁶ cm/s understood.

Briefly, Papp at 120 min, 10 μM measured for O=c1cc(-c2ccccc2)oc2cc(O)c(O)c(O)c12 : 135

----------
Could you please report measured Papp A→B at 120 min, 5 µM for the items listed next?
TEST SUMMARY: Permeation experiments on Caco-2 cell monolayer (two-way transport)
Format: in vitro ADME, human
REPORTED CONDITIONS: human, Caco-2; 5 µM; read-out: P app Absorptive (AP-BL)
State the answer as a number, implicitly in nm/s.

Quick note, Papp A→B at 120 min, 5 µM for O=C(O)[C@H]1O[C@@H](Oc2cc3oc(-c4ccccc4)cc(=O)c3c(O)c2O)[C@H](O)[C@@H](O)[C@@H]1O [BG, baicalein‐7‐O‐β‐D‐glucuronide] landed at 65.2

Record summary for O=C(O)[C@H]1O[C@@H](Oc2c(O)cc3oc(-c4ccccc4)cc(=O)c3c2O)[C@H](O)[C@@H](O)[C@@H]1O [B6G, baicalein‐6‐O‐β‐D‐glucuronide] : reported Papp A→B at 120 min, 5 µM = 63.8

----------
TEST SUMMARY: Permeation experiments on Caco-2 cell monolayer (two-way transport)
Format: in vitro ADME, human
REPORTED CONDITIONS: human, Caco-2, AP-BL; baicalein 15 μM; read-out: corrected apparent permeability (Pcorrected)
ENDPOINT: Papp at 120 min, 15 μM (×10⁻⁶ cm/s)
Quick note: give the figure in ×10⁻⁶ cm/s, leave out the unit.

O=c1cc(-c2ccccc2)oc2cc(O)c(O)c(O)c12 has a reported Papp at 120 min, 15 μM of 53.5

----------
TEST SUMMARY: Permeation experiments on Caco-2 cell monolayer (two-way transport)
Assay type: in vitro ADME, human
REPORTED CONDITIONS: human, Caco-2, 10 μM B loaded on AP side; 0.5% PEG400 group; read-out: corrected apparent permeability (Pcorrected)
ENDPOINT: Papp at 120 min, 10 μM (×10⁻⁶ cm/s)
// note: answer is a bare numeric in ×10⁻⁶ cm/s

So, O=c1cc(-c2ccccc2)oc2cc(O)c(O)c(O)c12 ? Its Papp at 120 min, 10 μM was 94.7
